assay: Pharmacokinetics in SD rats; type: in vivo; conditions: rat, in vivo; IV Inf (15 minutes); read-out: Clp
Starred links: 1 amine or outer side, 2 acyl side, 3 side chain; linkers in the order of their positions; H or OH if unused. Positions of bridges follow the written chain, without caps; N, C: chain ends. Non-standard residues stand in square brackets, D forms with d. Chains are numbered I, II in the order given. X1 = O=C(CCOCCOCCOCCN(CCOCCOCCOCCn1cc(CCC(=O)[*:2])nn1)CCOCCOCCOCCn1cc(CCC(=O)[*:3])nn1)[*:1]; X2 = O=C(CCSCCC(=O)[*:1])N1CN(C(=O)CC[*:2])CN(C(=O)CC[*:3])C1; TATA = O=C(CC[*:1])N1CN(C(=O)CC[*:2])CN(C(=O)CC[*:3])C1; Hyp = O=C(O)[C@@H]1C[C@@H](O)CN1; hArg = N=C(N)NCCCC[C@H](N)C(=O)O; tBuAla = CC(C)(C)C[C@H](N)C(=O)O; Nle = CCCC[C@H](N)C(=O)O; Mpa = O=C(O)CCS

substance	clearance / mL/min/kg
I: A[hArg]DC[Hyp]LVNPLCLHP[dD]W[hArg]C-NH2 / II: Ac-C[tBuAla]PE[dK]PYCFADPY[Nle]C-NH2 / III: Ac-C[tBuAla]PE[dK]PYCFADPY[Nle]C-NH2 (linker I:4-I:11-I:18, II:1-II:8-II:15, III:1-III:8-III:15 via TATA; linker I:N-II:5-III:5 via X1) [BCY12724]	13
I: A[hArg]DC[Hyp]LVNPLCLHP[dD]W[hArg]C-NH2 / II: [Mpa][tBuAla]PE[dK]PYCFADPY[Nle]C-NH2 / III: [tBuAla]PE[dK]PYCFADPY[Nle]C-NH2 (linker I:4-I:11-I:18, II:1-II:8-II:15 via TATA; linker I:N-II:5-III:4 via X1; linker III:N-III:7-III:14 via X2) [BCY12730]	18
